Test system: Staphylococcus aureus
experiment_summary: Antimicrobial activity against Staphylococcus aureus ATCC 25923 after 24 hr by broth microdilution assay
Format: functional
recorded_endpoint: -logMIC

In [3]: df
Out[3]:
                            molecule_smiles  recorded_endpoint  measurement
0  Cc1ccc(S(=O)(=O)NCCCCNS(=O)(=O)c2ccc(C)cc2)cc1            -logMIC         3.26
1                CS(=O)(=O)NCCCCNS(C)(=O)=O            -logMIC          2.9
2            CCCCS(=O)(=O)NCCNS(=O)(=O)CCCC            -logMIC        2.974
3   O=S(=O)(NCCCNS(=O)(=O)c1ccccc1)c1ccccc1            -logMIC        3.285
4    O=S(=O)(NCCNS(=O)(=O)c1ccccc1)c1ccccc1            -logMIC         3.38
5  Cc1cccc(S(=O)(=O)NCCCNS(=O)(=O)c2cccc(C)c2)c1            -logMIC         3.48
6  O=S(=O)(NCCCCCNS(=O)(=O)c1ccccc1)c1ccccc1            -logMIC         3.38
7             CCS(=O)(=O)NCCCCCNS(=O)(=O)CC            -logMIC         2.61
8  Cc1ccccc1S(=O)(=O)NCCCCNS(=O)(=O)c1ccccc1C            -logMIC         3.54
9            CCCS(=O)(=O)NCCCCNS(=O)(=O)CCC            -logMIC        2.933

====

Test system: Staphylococcus aureus
experiment_summary: Antimicrobial activity against Staphylococcus aureus ATCC 25923 after 24 hr by broth microdilution assay
Type: functional
Rule: measured -logMIC below 3 gets true (1); anything equal to or greater than 3 gets false (0).

                            molecule_smiles            system_name  class_label
0  Cc1ccccc1S(=O)(=O)NCCNS(=O)(=O)c1ccccc1C  Staphylococcus aureus    false (0)
1  Cc1cccc(S(=O)(=O)NCCCCNS(=O)(=O)c2cccc(C)c2)c1  Staphylococcus aureus    false (0)
2  COc1cccc(S(=O)(=O)NCCNS(=O)(=O)c2cccc(OC)c2)c1  Staphylococcus aureus    false (0)
3               CCS(=O)(=O)NCCCNS(=O)(=O)CC  Staphylococcus aureus     true (1)
4  Cc1ccccc1S(=O)(=O)NCCCNS(=O)(=O)c1ccccc1C  Staphylococcus aureus    false (0)
5  COc1cccc(S(=O)(=O)NCCCNS(=O)(=O)c2cccc(OC)c2)c1  Staphylococcus aureus    false (0)
6                CCS(=O)(=O)NCCNS(=O)(=O)CC  Staphylococcus aureus     true (1)
7          CCCCS(=O)(=O)NCCCCNS(=O)(=O)CCCC  Staphylococcus aureus     true (1)
8  COc1ccc(S(=O)(=O)NCCNS(=O)(=O)c2ccc(OC)cc2)cc1  Staphylococcus aureus    false (0)
9  Cc1cccc(S(=O)(=O)NCCNS(=O)(=O)c2cccc(C)c2)c1  Staphylococcus aureus    false (0)

====

-logMIC by entry:
System: Bacillus cereus
experiment_summary: Antimicrobial activity against Bacillus cereus RSKK 863 after 24 hr by broth microdilution assay
Type: functional
recorded_endpoint: -logMIC

>>> df
                             molecule_smiles      system_name  recorded_endpoint  measurement
 0              CCCS(=O)(=O)NCCNS(=O)(=O)CCC  Bacillus cereus            -logMIC        3.179
 1                CS(=O)(=O)NCCCCNS(C)(=O)=O  Bacillus cereus            -logMIC         2.84
 2                 CS(=O)(=O)NCCCNS(C)(=O)=O  Bacillus cereus            -logMIC        2.864
 3    O=S(=O)(NCCNS(=O)(=O)c1ccccc1)c1ccccc1  Bacillus cereus            -logMIC         3.37
 4  Cc1ccccc1S(=O)(=O)NCCCNS(=O)(=O)c1ccccc1C  Bacillus cereus            -logMIC        3.542
 5               CS(=O)(=O)NCCCCCNS(C)(=O)=O  Bacillus cereus            -logMIC        2.828
 6           CCCS(=O)(=O)NCCCCCNS(=O)(=O)CCC  Bacillus cereus            -logMIC         2.78
 7  Cc1ccccc1S(=O)(=O)NCCNS(=O)(=O)c1ccccc1C  Bacillus cereus            -logMIC         3.56
 8  Cc1ccc(S(=O)(=O)NCCNS(=O)(=O)c2ccc(C)cc2)cc1  Bacillus cereus            -logMIC          3.4
 9             CCS(=O)(=O)NCCCCCNS(=O)(=O)CC  Bacillus cereus            -logMIC         2.58
10   O=S(=O)(NCCCNS(=O)(=O)c1ccccc1)c1ccccc1  Bacillus cereus            -logMIC         3.36
11  COc1ccccc1S(=O)(=O)NCCNS(=O)(=O)c1ccccc1OC  Bacillus cereus            -logMIC         3.66
12  Cc1cccc(S(=O)(=O)NCCCNS(=O)(=O)c2cccc(C)c2)c1  Bacillus cereus            -logMIC         3.44
13           CCCCS(=O)(=O)NCCCNS(=O)(=O)CCCC  Bacillus cereus            -logMIC        2.917
14  O=S(=O)(NCCCCCNS(=O)(=O)c1ccccc1)c1ccccc1  Bacillus cereus            -logMIC          3.2
15  COc1cccc(S(=O)(=O)NCCNS(=O)(=O)c2cccc(OC)c2)c1  Bacillus cereus            -logMIC         3.58
